Biological target: T1, human VEGF (human, UniProt P15692 207-395, biotinylated (site not stated))
T1 construct: Biotinylated human VEGF generated internally; also called hVEGF; hVEGF-biotin
T1 sequence: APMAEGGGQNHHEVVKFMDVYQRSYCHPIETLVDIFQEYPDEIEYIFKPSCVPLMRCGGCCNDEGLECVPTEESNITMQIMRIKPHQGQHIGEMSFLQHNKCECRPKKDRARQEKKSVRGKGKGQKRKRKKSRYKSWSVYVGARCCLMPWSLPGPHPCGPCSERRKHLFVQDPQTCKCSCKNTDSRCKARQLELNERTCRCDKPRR
Test: Biacore SPR, hVEGF
Provide the reported pKd of each item.
// pKd here means minus log10 of the molar concentration (mol/L)

Request: Given NVS4 heavy chain variant Y59H (Fab, V domains shown, CDR variant of NVS4) VH: EVQLVESGGGLVQPGGSLRLSCTASGFSLTDYYYMTWVRQAPGKGLEWVGFIDPDDDPHYATWAKGRFTISRDNSKNTLYLQMNSLRAEDTAVYYCAGGDHNSGWGLDIWGQGTLVTVSS VL: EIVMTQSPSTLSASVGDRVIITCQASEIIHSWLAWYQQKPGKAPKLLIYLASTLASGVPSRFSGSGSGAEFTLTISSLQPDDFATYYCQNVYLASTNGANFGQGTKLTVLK , respond with its pKd.
Response: 10.25

Request: Given NVS4 heavy chain variant N102K (Fab, V domains shown, CDR variant of NVS4) VH: EVQLVESGGGLVQPGGSLRLSCTASGFSLTDYYYMTWVRQAPGKGLEWVGFIDPDDDPYYATWAKGRFTISRDNSKNTLYLQMNSLRAEDTAVYYCAGGDHKSGWGLDIWGQGTLVTVSS VL: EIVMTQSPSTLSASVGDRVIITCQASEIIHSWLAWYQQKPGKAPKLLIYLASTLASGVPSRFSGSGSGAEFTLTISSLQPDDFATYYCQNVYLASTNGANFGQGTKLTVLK , respond with its pKd.
Response: 10.77

Request: Given NVS4 light chain variant T53K (Fab, V domains shown, CDR variant of NVS4) VH: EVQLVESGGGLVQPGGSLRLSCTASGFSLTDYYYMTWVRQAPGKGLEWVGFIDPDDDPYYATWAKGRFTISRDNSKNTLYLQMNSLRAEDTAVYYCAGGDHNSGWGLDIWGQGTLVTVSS VL: EIVMTQSPSTLSASVGDRVIITCQASEIIHSWLAWYQQKPGKAPKLLIYLASKLASGVPSRFSGSGSGAEFTLTISSLQPDDFATYYCQNVYLASTNGANFGQGTKLTVLK , respond with its pKd.
Response: 11.55
